Collected IC50 values appear next to each entry.
- Tested on: C33A cervical carcinoma cells
- assay.notes: Cell viability by cellular ATP levels (ViaLight), C33A
- Assay type: cell-based
- stated.conditions: Homo sapiens, C-33-A; C33A; cellular ATP levels as in Example 2; read-out: IC50 (μM) C33A, Effect on Cancer Cells Viability
Entry rule: numbers only, all in µM.

| entry.smiles | result.units | quantitative.readout |
| --- | --- | --- |
| COC1=CC(c2cc3ccccc3n2C(=O)Nc2ccc(N(C)C)cc2)=N/C1=C/c1[nH]c(C)cc1C | µM | 1.11 |

# next compound below
Challenge: Notebook: pull reported IC50 for C33A cervical carcinoma cells, entry "COc1ccc(NC2=CC(c3cc4ccccc4[nH]3)=N/C2=C\c2[nH]c(C)cc2C)cc1"
Response given: 0.93
